# subject_of_test: Human ACC2 (ACC2 (Nd), N terminal deleted) (Homo sapiens, UniProt O00763)
# Construct: made in house; host or cells: SF-9 insect cells (baculovirus)
# Sequence (O00763 117-2458 limits assumed, stated change not applied): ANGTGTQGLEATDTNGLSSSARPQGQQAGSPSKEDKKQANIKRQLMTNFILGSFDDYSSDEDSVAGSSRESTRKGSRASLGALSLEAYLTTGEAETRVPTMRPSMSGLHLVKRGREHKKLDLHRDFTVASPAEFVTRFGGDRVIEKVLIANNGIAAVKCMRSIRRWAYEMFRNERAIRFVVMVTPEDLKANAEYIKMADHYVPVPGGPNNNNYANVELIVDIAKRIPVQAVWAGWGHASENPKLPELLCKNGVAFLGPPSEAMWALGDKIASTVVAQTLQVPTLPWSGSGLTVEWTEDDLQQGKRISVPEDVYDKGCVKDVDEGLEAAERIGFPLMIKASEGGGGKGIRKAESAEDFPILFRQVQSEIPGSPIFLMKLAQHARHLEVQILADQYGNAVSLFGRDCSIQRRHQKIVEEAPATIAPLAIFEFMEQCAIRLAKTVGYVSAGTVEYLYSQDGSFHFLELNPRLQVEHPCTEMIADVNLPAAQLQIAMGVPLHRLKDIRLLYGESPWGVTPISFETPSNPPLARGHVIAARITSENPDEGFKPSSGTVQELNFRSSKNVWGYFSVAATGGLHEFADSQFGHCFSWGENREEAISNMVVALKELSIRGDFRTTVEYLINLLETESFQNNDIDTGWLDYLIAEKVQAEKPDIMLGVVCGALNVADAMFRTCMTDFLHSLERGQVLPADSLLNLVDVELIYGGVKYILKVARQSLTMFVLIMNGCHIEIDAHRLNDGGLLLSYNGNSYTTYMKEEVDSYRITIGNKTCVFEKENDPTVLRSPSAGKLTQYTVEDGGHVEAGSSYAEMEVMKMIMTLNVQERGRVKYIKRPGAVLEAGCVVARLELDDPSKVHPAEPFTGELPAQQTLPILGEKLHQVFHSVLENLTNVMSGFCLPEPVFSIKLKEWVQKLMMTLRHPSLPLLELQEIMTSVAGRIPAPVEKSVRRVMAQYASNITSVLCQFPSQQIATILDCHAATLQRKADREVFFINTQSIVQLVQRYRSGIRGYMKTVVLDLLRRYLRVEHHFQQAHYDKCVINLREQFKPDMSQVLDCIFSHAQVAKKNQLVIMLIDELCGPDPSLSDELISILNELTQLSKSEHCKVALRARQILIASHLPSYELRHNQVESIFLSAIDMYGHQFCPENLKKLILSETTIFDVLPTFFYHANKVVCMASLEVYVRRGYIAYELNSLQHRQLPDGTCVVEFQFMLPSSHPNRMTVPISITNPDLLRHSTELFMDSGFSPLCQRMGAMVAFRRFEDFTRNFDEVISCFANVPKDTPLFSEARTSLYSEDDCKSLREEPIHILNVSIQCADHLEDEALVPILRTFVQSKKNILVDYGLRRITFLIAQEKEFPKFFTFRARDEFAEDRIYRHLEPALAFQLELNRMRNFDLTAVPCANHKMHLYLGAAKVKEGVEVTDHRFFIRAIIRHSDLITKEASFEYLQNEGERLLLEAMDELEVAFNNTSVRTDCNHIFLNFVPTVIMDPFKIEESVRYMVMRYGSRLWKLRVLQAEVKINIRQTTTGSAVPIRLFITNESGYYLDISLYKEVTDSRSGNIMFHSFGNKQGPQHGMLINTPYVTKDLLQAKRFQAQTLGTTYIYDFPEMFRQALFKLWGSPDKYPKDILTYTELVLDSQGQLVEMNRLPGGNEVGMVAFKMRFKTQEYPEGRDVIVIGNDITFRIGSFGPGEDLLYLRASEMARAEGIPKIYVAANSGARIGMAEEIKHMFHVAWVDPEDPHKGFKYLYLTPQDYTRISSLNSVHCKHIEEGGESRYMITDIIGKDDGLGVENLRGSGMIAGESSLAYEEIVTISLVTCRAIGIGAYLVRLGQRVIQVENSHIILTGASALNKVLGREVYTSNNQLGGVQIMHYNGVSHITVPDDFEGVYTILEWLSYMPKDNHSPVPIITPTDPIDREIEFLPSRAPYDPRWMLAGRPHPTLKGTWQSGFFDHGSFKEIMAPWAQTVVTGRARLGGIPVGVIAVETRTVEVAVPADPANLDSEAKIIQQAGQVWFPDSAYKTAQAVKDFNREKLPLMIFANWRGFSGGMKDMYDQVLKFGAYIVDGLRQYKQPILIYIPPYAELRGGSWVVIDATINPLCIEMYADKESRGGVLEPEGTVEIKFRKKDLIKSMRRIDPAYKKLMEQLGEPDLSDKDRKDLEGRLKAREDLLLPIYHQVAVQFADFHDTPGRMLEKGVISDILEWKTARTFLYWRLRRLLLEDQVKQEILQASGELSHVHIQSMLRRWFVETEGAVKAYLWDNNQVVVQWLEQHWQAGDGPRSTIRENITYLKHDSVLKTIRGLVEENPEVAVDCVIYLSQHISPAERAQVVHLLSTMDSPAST
# assay_notes: Measurement of ACC2 inhibitory activity (malachite green, recombinant ACC2 (Nd))
# Format: biochemical
# setup_conditions: 10 μM test compound; 20 min preincubation at 30° C., 20 min reaction; read-out: ACC2 inhibitory rate at 10 μM (%)
quantity_kind: inhibition at 10 µM (%)

| compound | scale_unit | inhibition at 10 µM |
| --- | --- | --- |
| CCOc1ccc2cn(-c3ccc(OC[C@H](C)NC(C)=O)cc3)nc2c1 | % | 95 |
| C[C@@H](COc1cnc(-c2nc3ccc(OCC4CC4(F)F)cc3o2)c(F)c1)NC(N)=O (some centres unmarked) | % | 95 |
| CCOc1ccc2c(F)c(-c3ccc(OC[C@H](C)NC(C)=O)cc3F)nn2c1 | % | 90 |
| CC(=O)N[C@@H](C)COc1ccc(-c2nc3ccc(OCC4CC4)cc3o2)nc1 | % | 101 |
| CC(=O)N[C@@H](C)COc1ccc(-c2nn3cc(OCC4CC4)ccc3c2F)c(F)c1 | % | 99 |
| CC(=O)N[C@@H](C)COc1cc(F)c(-n2cc3ccc(OCC4CC4)cc3n2)cc1F | % | 93 |
| CC(=O)N[C@@H](C)COc1n[nH]c(-c2nc3ccc(OCC4CC4)cc3o2)c1F | % | 98 |
| CC(=O)N[C@@H](C)COc1cc(-c2nc3cc(OCC4CC4)ccc3o2)on1 | % | 92 |
